# TEST_NAME: RP, Waters CORTECS T3, 100 × 2.1 mm, 2.7 µm, 0.25 mL/min, estimated dead time 0.88 min; A: water + 0.1% formic acid, pH 3; B: methanol + 0.1% formic acid, pH 3; gradient (min/%B) 0/5 5/5 25/95 25.1/100 35/100 35.1/5 45/5
# CONDITION_INFO: stereoisomer not certain
REPORTED_PROPERTY: LC retention time (min)
Numeric answer only, unit min assumed.

{"columns": ["COMPOUND", "UNIT_INFO", "OBSERVED"],
 "data": [
  ["CC(=O)N[C@@H](CC(C)C)C(=O)O", "min", 12],
  ["CC(=O)NCC(=O)O", "min", 1.11],
  ["Nc1ncnc2c1ncn2C1OC(COP(=O)(O)OP(=O)(O)OC2OC(CO)C(O)C(O)C2O)C(O)C1O (centres undefined)", "min", 1.08]
]}

Give its LC retention time value. Item: Nc1ccccc1S(=O)(=O)O
1.89

* * *

# TEST_NAME: RP, Waters CORTECS T3, 100 × 2.1 mm, 2.7 µm, 0.3 mL/min, estimated dead time 0.73 min; A: water + 0.1% formic acid, pH 3; B: methanol + 0.1% formic acid, pH 3; gradient (min/%B) 0/5 5/5 25/95 25.1/100 35/100 35.1/5 45/5
# CONDITION_INFO: stereoisomer not certain
LC retention time reference
Respond with the bare value in min.

Example entries begin here.
{"columns": ["COMPOUND", "UNIT_INFO", "OBSERVED"],
 "data": [
  ["CC(=O)OCC(=O)C1(O)CCC2C3CCC4=CC(=O)CCC4(C)C3C(O)CC21C (stereo not drawn) [CORTISOL 21-ACETATE]", "min", 18.6],
  ["NC(=O)Cc1c[nH]c2ccccc12 [INDOLE-3-ACETAMIDE]", "min", 9.92]
]}

// next item, LC retention time requested
For the compound shown here, O=C(O)c1cc(=O)c2ccccc2[nH]1 [4-HYDROXY-2-QUINOLINECARBOXYLIC ACID] , give the reported LC retention time.
9.2

* * *

# TEST_NAME: RP, Waters CORTECS T3, 100 × 2.1 mm, 2.7 µm, 0.2 mL/min, estimated dead time 1.1 min; A: water + 0.1% formic acid, pH 3; B: methanol + 0.1% formic acid, pH 3; gradient (min/%B) 0/0 1/0 6/5 30/100 35/100 35.1/0 40/0
# CONDITION_INFO: stereoisomer not certain
REPORTED_PROPERTY: LC retention time (min)
Answer format: numeric, min implied, no suffix.

{"columns": ["COMPOUND", "LC retention time [min]"],
 "data": [
  ["Nc1ccn(C2CC(O)C(COP(=O)(O)O)O2)c(=O)n1 (centres undefined) [2'-DEOXYCYTIDINE 5'-MONOPHOSPHATE]", 1.35],
  ["Cc1ncc(CO)c(C(=O)O)c1O [4-PYRIDOXATE]", 6.16],
  ["N[C@@H](Cc1ccc(O)c([N+](=O)[O-])c1)C(=O)O", 8.96],
  ["O=C(O)CCCCC1SCC2NC(=O)NC21 (centres undefined)", 13.7],
  ["CC(=O)NC(CCCCN)C(=O)O (centres undefined)", 1.35]
]}

Next item in the queue.
Requested field: LC retention time. Item: NC(CCSSCCC(N)C(=O)O)C(=O)O (centres undefined)
1.35

* * *

# TEST_NAME: HILIC, Thermo Scientific Accucore HILIC, 100 × 2.1 mm, 2.6 µm, 0.5 mL/min, estimated dead time 0.44 min; A: water + 0.1% formic acid + 10 mM ammonium formate, pH 3; B: 5% water + 95% acetonitrile + 0.1% formic acid + 10 mM ammonium formate, pH 3; gradient (min/%B) 0/95 5/95 20/57 25/57 30/95 40/95
# CONDITION_INFO: stereoisomer not certain
Output: class label from LC retention time. Mapping: bottom range = under 3 min, center range = from 3 min up to 6 min, top range = 6 min and over

Please let me know in which category the item CC(C)(CO)C(O)C(=O)NCCC(=O)O (stereo not given) belongs.
center range

Hi, small favor: classify O=C(O)c1cc(=O)c2ccccc2[nH]1 [4-HYDROXY-2-QUINOLINECARBOXYLIC ACID] by its LC retention time when you get a moment.
top range

Which LC retention time band matches c1ncc2[nH]cnc2n1 ?
bottom range

Each molecule maps to one class by LC retention time. Which class for O=c1[nH]cnc2c1ncn2C1OC(CO)C(O)C1O (stereo not given) ?
center range

Input O=C(O)CCCCCCC(=O)O ; output its category
bottom range

Dear colleague, I would appreciate it if you could identify the bin for Nc1nc2nccnc2c(=O)[nH]1 and reply at your convenience.
center range

Exam item: assign Nc1ccccc1S(=O)(=O)O to the correct category.
bottom range

Textbook exercise: identify the category of the molecule given here, CC(=O)NC(CCCCN)C(=O)O (stereo not given) , according to its measured value.
top range

Hey, which category is N[C@@H](Cc1cc(I)c(O)c(I)c1)C(=O)O in, do you know?
top range

* * *

# TEST_NAME: RP, Waters ACQUITY UPLC BEH C18, 100 × 2.1 mm, 1.7 µm, 0.1 mL/min, estimated dead time 2.2 min; A: water + 0.1% formic acid, pH 3; B: methanol + 0.1% formic acid, pH 3; gradient (min/%B) 0/5 5/5 25/95 25.1/100 35/100 35.1/5 45/5
# CONDITION_INFO: stereoisomer not certain
Label satisfied when LC retention time is strictly below 7 min; at or above that, label not satisfied.

{"columns": ["COMPOUND", "CATEGORY_LABEL"],
 "data": [
  ["CC(=O)N[C@@H](CC(C)C)C(=O)O [N-ACETYL-L-LEUCINE]", "not satisfied"]
]}

Alright, here's another compound for you.
Lab note: confirm whether the reported LC retention time for this compound is below 7 min, equality not counting. compound: CC(=O)NCCCC(=O)[O-] [4-ACETAMIDOBUTANOATE]
satisfied

* * *

# TEST_NAME: RP, Waters CORTECS T3, 100 × 2.1 mm, 2.7 µm, 0.3 mL/min, estimated dead time 0.73 min; A: water + 0.1% formic acid, pH 3; B: methanol + 0.1% formic acid, pH 3; gradient (min/%B) 0/0 1/0 6/5 30/100 35/100 35.1/0 40/0
# CONDITION_INFO: stereoisomer not certain
Counter-ions that a name gives are not always drawn.
Entries get a class label from measured LC retention time. See ranges: bin A = under 5 min, bin B = from 5 min up to 8 min, bin C = 8 min and over

{"columns": ["COMPOUND", "CATEGORY_LABEL"],
 "data": [
  ["CCOC(OCC)C(O)COP(=O)(O)O (centres undefined) [GLYCERALDEHYDE 3-PHOSPHATE DIETHYL ACETAL]", "bin B"]
]}

// bin(item) where item = O=S(=O)(O)Oc1c[nH]c2ccccc12 [INDOXYL SULFATE]
bin B

GET /class?item= CC(=O)N[C@@H](CC(=O)O)C(=O)O
bin A

Which bin should I file CC(=O)N[C@@H](CC(C)C)C(=O)O under?
bin C

Input CC1NC(=O)NC1CCCCCC(=O)O (centres undefined) ; output its category
bin C

Where would CC(=O)NC(CCC(=O)O)C(=O)O (racemic) land among the classes by reported LC retention time?
bin A

* * *

# TEST_NAME: RP, Waters CORTECS T3, 100 × 2.1 mm, 2.7 µm, 0.2 mL/min, estimated dead time 1.1 min; A: water + 0.1% formic acid, pH 3; B: methanol + 0.1% formic acid, pH 3; gradient (min/%B) 0/5 5/5 25/95 25.1/100 35/100 35.1/5 45/5
# CONDITION_INFO: stereoisomer not certain
Short version: LC retention time at least 10 min is Fulfilled, less is Not fulfilled.

As a guide, the following entries are already answered.
{"columns": ["COMPOUND", "CATEGORY_LABEL"],
 "data": [
  ["CC(C)=CCNc1ncnc2nc[nH]c12 [N6-(DELTA2-ISOPENTENYL)-ADENINE]", "Fulfilled"],
  ["O=c1[nH]c(=O)c2ncn(C3OC(CO)C(O)C3O)c2[nH]1 (centres undefined) [XANTHOSINE]", "Fulfilled"],
  ["CCCCCCCCCCCCCCCC(=O)O [PALMITATE]", "Fulfilled"],
  ["Nc1ncnc2c1ncn2[C@@H]1O[C@H](CSCC[C@H]([NH3+])C(=O)[O-])[C@@H](O)[C@H]1O [S-(5'-ADENOSYL)-L-HOMOCYSTEINE]", "Not fulfilled"]
]}

Reported LC retention time at or above 10 min? Cc1ncc(CO)c(C(=O)O)c1O [4-PYRIDOXATE]
Fulfilled

* * *

# TEST_NAME: HILIC, Waters XBridge BEH Amide, 100 × 2.1 mm, 2.5 µm, 0.5 mL/min, estimated dead time 0.44 min; A: water + 0.1% acetic acid + 10 mM ammonium acetate, pH 4; B: 5% water + 95% acetonitrile + 0.1% acetic acid + 10 mM ammonium acetate, pH 4; gradient (min/%B) 0/95 5/95 20/57 25/57 30/95 40/95
# CONDITION_INFO: stereoisomer not certain
REPORTED_PROPERTY: LC retention time (min)
Supply the numeric figure in min, leaving out any unit text.

{"columns": ["MOLECULE", "REPORTED_PROPERTY", "OBSERVED"],
 "data": [
  ["CC(=O)NC(CCCCN)C(=O)O (stereo not given)", "LC retention time", 13.2],
  ["O=C(O)c1cc(=O)c2ccccc2[nH]1 [4-HYDROXY-2-QUINOLINECARBOXYLIC ACID]", "LC retention time", 8.25],
  ["CCC(NC(=O)CCC(N)C(=O)O)C(=O)NCC(=O)O (stereo not given)", "LC retention time", 14.5],
  ["NCCS(=O)(=O)O", "LC retention time", 11.4]
]}

Kindly review the next molecule as well.
Item O=c1[nH]cnc2c1ncn2C1OC(CO)C(O)C1O (stereo not given) has what recorded LC retention time?
7.97

The reported numbers originate from the RepoRT retention time repository (doi:10.1016/j.jchromb.2020.122105).
